FYI, the data here is from ChEMBL document CHEMBL3507680.

Listing: cytotoxicity at 70.5 h of selected molecules
# procedure.summary: Human HepG2 cell viability assay in 384 well format
# Format: toxicity, cell-based
# Design: dose 125 nL, time 70.5 hour; concentration not given beside the values
# test.settings: HepG2 cells, read-out: Inhibition
measured.quantity: cytotoxicity at 70.5 h (%)

1) CC(C)N1CCC(Cc2cc(-c3cccc(C(=O)O)c3)ncn2)C1 (stereo not drawn)
-15
2) Cc1ccc(-c2csc(N)c2C#N)cc1
-16.3
3) CCC1CCCCN1C(=O)Cn1nc(-c2ccc(C)s2)cc(N)c1=O (stereo not drawn)
-2.23
4) Cc1cccc(NCC(=O)Nc2cc(F)ccc2F)c1C(N)=O
-8.06
5) CCOCC(=O)N1CCC2(CC1)COC(COCc1ccccn1)C2 (stereo not drawn)
4.72
6) Cc1ncsc1CCN(C)C(=O)CN1CCCCCC1=O
-2.38
7) Cc1nc(C)n(CC2CN(CCOc3cccc(C#N)c3)CCO2)n1 (stereo not drawn)
-6.4
8) O=C(c1cc(C2CC2)[nH]n1)N1CCCN(c2nccs2)CC1
-5.32
9) Fc1cnc(N2CCCC3(CCN(Cc4cccs4)C3)C2)nc1 (stereo not drawn)
-2.04
10) CC(=O)NCCNC(=O)CN1CCCC1c1c(C)nn(C)c1C (stereo not drawn)
25.7
11) COc1cc(N2CCOC(c3ccc(F)cc3)C2)ncn1 (stereo not drawn)
-6.22
12) CN(Cc1cnccn1)C(=O)Nc1cc(F)cc(N2CCCC2)c1
-5.64
13) CN(C)c1ncnc2c1CCN(CC1CCCC1)CC2
-13.2
14) CC(=O)N(C)c1nc(CN2CCOC(Cn3cc(C)cn3)C2)cs1 (stereo not drawn)
13.6
15) Cc1ncsc1C(=O)N(Cc1cccnc1)C1CC1
3.01
16) CC(=O)N1CCCn2nc(CNS(=O)(=O)N3CCC(C)CC3)cc2C1
-11.6
17) CCNC(=O)COc1ccccc1N1CCCC(C)C1 (stereo not drawn)
-1.31
18) COc1ccc(C)cc1CN(Cc1ncc(C)o1)C1CCN(C)C1 (stereo not drawn)
14.5
19) Cn1c(=O)[nH]c2cc(C(=O)OCCCn3ccccc3=O)ccc21
33.2
20) CC(C)n1cc(CN(C)C[C@@H]2CCCN3CCCC[C@H]23)cn1
-6.94
21) CC(C)c1n[nH]c(C2CN(C(=O)c3ncoc3C(C)C)CCO2)n1 (stereo not drawn)
-2.71
22) COc1ccc(CN[C@H]2CC[C@@]3(CCC(=O)N3)CC2)cc1
-6.23
23) O=C(NC[C@H]1OC[C@@H]2CN(Cc3ccco3)CC[C@@H]21)c1cccnc1
6.02
24) O=C(CN1CCOC1=O)N1CCc2nnc(Cc3ccccc3)n2CC1
17.1
25) COc1ncc(NCc2ccc(Cl)c(Cl)c2)cc1C(N)=O
-5.01
26) CS(=O)(=O)c1ccc(-c2cc(O)cc(CCC3CCCCN3)c2)cc1 (stereo not drawn)
-7.28
27) Cn1cnc(S(=O)(=O)NCC2(O)CCc3ccccc3C2)c1 (stereo not drawn)
-7.71
28) NC(=O)C1CCN(Cc2cccc(NC(=O)c3ccsc3)c2)CC1
0.035
29) Cc1nn(C)c(C)c1C(C)NC(=O)c1cc(CN2CCC(O)CC2)on1 (stereo not drawn)
-5.78
30) CCc1nc(C2CCCN(C(=O)NC3CC3)C2)no1 (stereo not drawn)
-0.741
31) Cc1ccc(C(=O)Nc2ccccc2F)n1C
-11.5
32) Cc1nnc(CN(C)CC(=O)N2CCCN(C3CCCC3)CC2)n1C
-6.96
33) COc1ccccc1CN1CCC2(CC1)CC(Oc1ccccn1)CO2 (stereo not drawn)
47.3
34) Cc1noc(-c2ccc(N(C)Cc3ccncn3)nc2)n1
-5.88
35) Cc1noc(C)c1C(=O)NCC(c1ccc(F)cc1)N(C)C (stereo not drawn)
-2.05
36) COc1ccc(NC(=O)Cn2nc(C)c(C)cc2=O)cc1
1.99
37) COc1cccc(C(=O)N2CCCCC2CNC(N)=O)c1 (stereo not drawn)
9
38) O=C(NCc1ccccc1CN1CCCC1=O)Nc1nccs1
-9.69
39) CC(C)COCCCNC(=O)NCC(O)c1cccc(F)c1 (stereo not drawn)
-0.106
40) O=S1(=O)c2ccccc2C(O)CN1CCO (stereo not drawn)
-5.7
41) COCCNc1nc2c(c(NCC3CCOC3)n1)CCNCC2 (stereo not drawn)
-0.779
42) O=C([C@H]1CCCO1)N1CCOC2(CCCN(c3ncccc3F)C2)C1 (stereo partly drawn)
-15.7
43) O=C(Nc1cc(C2CCOCC2)[nH]n1)c1cscn1
-7.61
44) COc1ccc(C(=O)N2CC(c3ccncc3)C2)c(OC)c1OC
-5.75
45) O=C(Cc1ccc(O)c(Cl)c1)N1CCN(CC2CC2)[C@@H]2CS(=O)(=O)C[C@@H]21
17.4
46) CS(=O)(=O)Cc1ccc(NC(=O)c2cccnc2)cc1F
-6.22
47) COc1ccc(C)cc1-n1cnnc1CC1CCNCC1
-3.84
48) Cc1cc(NCCCOC(C)C)c2nncn2n1
7.73
